All figures here come from the supplement of paper PMC10567573.

B1: ADAMTS4 (parent)
chain: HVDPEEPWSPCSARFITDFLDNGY

variants of: B1; assay: protein stability index of a GFP-peptide fusion (GPS, HEK-293T) (PSI 1-6); higher = more stable; settings: c terminus: a fixed tail appended;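 also: lentivirally expressed fusions sorted by FACS into six bins by GFP to DsRed ratio, PSI derived from sequencing read proportions per bin multiplied by bin number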
Respond with 1 (yes) for protein stability index values of 2 and above, 0 (no) for values below.

Example results:
- G23N: 0 (no)
- E6V: 0 (no)
- D3L: 0 (no)

Kindly review the next variant as well.
Evaluate F19V : protein stability index at minimum 2? 0 (no)
